Multiple publications report Ki for Sodium-dependent noradrenaline transporter (Homo sapiens, UniProt P23975); what follows is a combined list.
Readout Type: Ki (nM)

As a guide, the following entries are already answered.
[in] // fetch Sodium-dependent noradrenaline transporter (Homo sapiens, UniProt P23975) Ki for `COc1ccc(-c2ccc(F)cc2CO[C@H]2CCNC2)cc1`
[out] 674

[in] Cool, now `Fc1ccc2c(-c3c(F)cccc3F)nc(C3CCNCC3)nc2c1`
[out] 11.4

[in] Cool, now `Fc1cc2nc(N3CCNCC3)nc(-c3c(F)cccc3F)c2cc1F`
[out] 31.5

P = CC(=O)c1cccc(-c2ccccc2CO[C@H]2CCNC2)c1
Q = Cc1ccc(OC[C@H]2CCCNC2)c(Oc2cccc(C(F)(F)F)c2)n1
[in] Hi team, can someone confirm which has the larger Ki: P or Q ? Thanks. Answer = label.
[out] P
(P: 1280 nM, Q: 310 nM)

* * *

pKi: −log10 of the molar value.
Multiple publications report pKi for UniProt P23975; what follows is a combined list.

[in] Given the compound `Clc1ccc(-c2ccccc2CO[C@H]2CCNC2)cc1Cl` , what is its reported pKi?
[out] 7.82

[in] Cool, now `CNCC[C@H](Oc1cccc(-n2nc3c(N(C)C)nnc(C)c3c2C)c1)c1cccnc1`
[out] 6.30 to 7.00

[in] Cool, now `CCOc1ccccc1O[C@@H](c1ccccn1)[C@H]1CCCNC1`
[out] 8.15

[in] Cool, now `c1ccc(-c2ccccc2-c2ccccc2CO[C@H]2CCNC2)cc1`
[out] 6.26

[in] Cool, now `CC(C)C[C@@H](Oc1cc(Cl)cc(Cl)c1)[C@H]1CCNC1`
[out] ≥ 8.00

[in] Cool, now CNCCCC(Oc1cccc(-n2nc3c(N(C)C)nnc(C)c3c2C)c1)c1ccccc1 (stereo not drawn)
[out] 6.30 to 7.00

[in] Cool, now `FC(F)(F)c1c(Cl)cccc1O[C@@H](C1CC1)[C@H]1CCNC1`
[out] ≥ 8.00

[in] Cool, now Fc1ccccc1-c1nc(C2CCCNC2)nc2ccccc12 (stereo not drawn)
[out] 7.64

[in] Cool, now `Cc1ccc(OC[C@H]2CCCNC2)c(Oc2cccc(Cl)c2)n1`
[out] 8.01

[in] Cool, now `Cc1ccc(OC[C@H]2CCCNC2)c(Oc2cccc3c2CCCC3)n1`
[out] 7.07

[in] Cool, now `CCOc1ccc(-n2nc3c(NCc4ccccc4)nnc(C)c3c2C)c(F)c1`
[out] 6.00 to 6.30

* * *

pKi: −log10 of the molar value.
Multiple publications report pKi for Sodium-dependent noradrenaline transporter (Homo sapiens); what follows is a combined list.

As a guide, the following entries are already answered.
[in] Given the compound `CCOc1ccc(-n2nc3c(N4CC[C@@H](NCc5ccccc5)C4)nnc(C)c3c2C)c(F)c1` , what is its reported pKi?
[out] 6.30 to 7.00

[in] Cool, now CCOc1ccc(-n2nc3c(N(C)CCC(N)c4ccccc4)nnc(C)c3c2C)c(F)c1 (stereo not shown)
[out] 6.00 to 6.30

[in] Cool, now `CC(C)C[C@H](Oc1cccc(F)c1Cl)[C@@H]1CCNC1`
[out] ≥ 8.00

[in] Cool, now `CC(C)[C@@H](Oc1ccc(Cl)cc1C(F)(F)F)[C@H]1CCNC1`
[out] ≥ 7.00

[in] Cool, now CC(C)C(Oc1c(Cl)cccc1Cl)C1CCNC1 (stereo not shown)
[out] ≥ 8.00

More entries:
[in] Given the compound `Cc1ccc(O[C@H](C2CC2)[C@H]2CCNC2)c(F)c1F` , what is its reported pKi?
[out] ≥ 8.00

[in] Cool, now `CC(C)[C@H](Oc1ccc(Cl)c(F)c1)[C@H]1CCNC1`
[out] ≥ 8.00
